Origin of measurements: ChEMBL document CHEMBL3525983

Assay: AUC (0 to infinity) in F344/DuCrlCrlj rat at 1 mg/kg, po administered via gavage by LC-MS/MS analysis
Type: ADME, organism-based
Set-up: time infinity, dose 1 mg/kg, dosed compound name [14C]Rivoglitazone, route oral
Details: plasma
parameter: AUC(0-inf) (ng·h/mL)

COc1ccc2nc(COc3ccc(CC4SC(=O)NC4=O)cc3)n(C)c2c1.Cl (racemic); 49800

----------
Experiment: Terminal elimination half life in monkey at 0.986 mg/kg, po administered via gavage by LC-MS/MS analysis
Format: ADME, organism-based, Macaca mulatta
Design: dose 0.986 mg/kg, dosed compound name [14C]Rivoglitazone, route oral
Conditions: rhesus monkey, in vivo, read-out: beta t1/2 (converted)
parameter: half-life (h)

COc1ccc2nc(COc3ccc(CC4SC(=O)NC4=O)cc3)n(C)c2c1.Cl (racemic); 7.34
